Organism: Cavia porcellus
experimental.protocol: Ratio of affinity towards delta to kappa opioid receptor
Selectivity ratio: recorded values
metric: Selectivity ratio

1. CCCC(=N)NCCCCNC(=O)C(CC(C)C)NC(=O)CNC(=O)[C@]1(c2ccccc2)CC1CN1CC[C@@]2(C)c3cc(O)ccc3CC1C2C (stereo not given in full) : 107
2. CCC(=N)NCCCNC(=O)C(CC(C)C)NC(=O)CNC(=O)[C@]1(c2ccccc2)CC1CN1CC[C@@]2(C)c3cc(O)ccc3CC1C2C (stereo not given in full) : 40.5
3. CCC(=N)NCCCCNC(=O)C(CC(C)C)NC(=O)CNC(=O)[C@]1(c2ccccc2)CC1CN1CC[C@@]2(C)c3cc(O)ccc3CC1C2C (stereo not given in full) : 55.2
4. CC(C)CC(NC(=O)CNC(=O)[C@]1(c2ccccc2)CC1CN1CC[C@@]2(C)c3cc(O)ccc3CC1C2C)C(=O)NCCCCCCN=C(N)N (stereo not given in full) : 84.2
5. CCCC(=N)NCCCNC(=O)C(CC(C)C)NC(=O)CNC(=O)[C@]1(c2ccccc2)CC1CN1CC[C@@]2(C)c3cc(O)ccc3CC1C2C (stereo not given in full) : 118

###

study.system: Mu-type opioid receptor (Rattus norvegicus, UniProt P33535)
Sequence (P33535 whole entry): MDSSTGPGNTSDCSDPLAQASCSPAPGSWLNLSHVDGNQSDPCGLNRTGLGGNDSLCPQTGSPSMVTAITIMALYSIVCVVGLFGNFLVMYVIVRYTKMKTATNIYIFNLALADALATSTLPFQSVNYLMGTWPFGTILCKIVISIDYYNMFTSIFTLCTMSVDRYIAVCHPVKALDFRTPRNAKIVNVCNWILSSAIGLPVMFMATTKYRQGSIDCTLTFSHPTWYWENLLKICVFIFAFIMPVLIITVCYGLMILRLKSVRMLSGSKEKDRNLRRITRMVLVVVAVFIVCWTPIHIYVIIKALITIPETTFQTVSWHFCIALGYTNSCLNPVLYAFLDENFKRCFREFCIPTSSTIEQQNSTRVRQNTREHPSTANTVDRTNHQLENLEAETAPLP
experimental.protocol: Displacement of [3H]diprenorphine from opioid receptor mu 1 on crude membrane fractions obtained from whole rat brain (minus cerebellum)
Assay type: tissue-based
pKi: −log10 of the molar value. Residues, ends and D or L forms follow the SMILES beside them. *: point of attachment. X1 = CC1C2Cc3ccc(O)cc3[C@]1(C)CCN2CC1C[C@]1(C(=O)*)c1ccccc1
pKi: recorded values
metric: pKi

1. CC[C@H](C)[C@H](NC(=O)[C@H](CCCNC(=N)N)NC(=O)[C@H](CCCNC(=N)N)NC(=O)CNC(=O)[C@]1(c2ccccc2)CC1CN1CC[C@@]2(C)c3cc(O)ccc3CC1C2C)C(=O)OC (stereo partly specified) (X1-GRRI-OMe) : 5.64
2. CC(C)CC(NC(=O)[C@]1(c2ccccc2)CC1CN1CC[C@@]2(C)c3cc(O)ccc3CC1C2C)C(=O)NCCCCN=C(N)N (stereo partly specified) : 5.53
3. CCCCC(=N)NCCCNC(=O)C(CC(C)C)NC(=O)[C@]1(c2ccccc2)CC1CN1CC[C@@]2(C)c3cc(O)ccc3CC1C2C (stereo partly specified) : 5.65
4. CC(C)CC(NC(=O)CNC(=O)[C@]1(c2ccccc2)CC1CN1CC[C@@]2(C)c3cc(O)ccc3CC1C2C)C(=O)NCCCNC(=N)N (stereo partly specified) : 5.03
5. CCCCC(=N)NCCCCCNC(=O)C(CC(C)C)NC(=O)[C@]1(c2ccccc2)CC1CN1CC[C@@]2(C)c3cc(O)ccc3CC1C2C (stereo partly specified) : 5.62
6. CCCCC(=N)NCCCNC(=O)C(CC(C)C)NC(=O)CNC(=O)[C@]1(c2ccccc2)CC1CN1CC[C@@]2(C)c3cc(O)ccc3CC1C2C (stereo partly specified) : 5.46

###

study.system: Opioid receptors; mu & kappa (UniProt P41145+P35372)
Sequence (P35372 whole entry, looked up): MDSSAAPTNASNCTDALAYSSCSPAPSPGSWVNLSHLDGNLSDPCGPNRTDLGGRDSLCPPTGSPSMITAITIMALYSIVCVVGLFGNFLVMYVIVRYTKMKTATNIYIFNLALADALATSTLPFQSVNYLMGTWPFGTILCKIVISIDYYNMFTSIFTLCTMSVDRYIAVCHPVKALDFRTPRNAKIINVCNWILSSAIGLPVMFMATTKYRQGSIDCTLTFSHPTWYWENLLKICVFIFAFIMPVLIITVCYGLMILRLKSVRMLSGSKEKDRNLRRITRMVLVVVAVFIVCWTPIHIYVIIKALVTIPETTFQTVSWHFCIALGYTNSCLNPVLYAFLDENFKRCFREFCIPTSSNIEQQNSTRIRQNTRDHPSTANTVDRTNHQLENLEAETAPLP
Sequence (P41145 whole entry, looked up): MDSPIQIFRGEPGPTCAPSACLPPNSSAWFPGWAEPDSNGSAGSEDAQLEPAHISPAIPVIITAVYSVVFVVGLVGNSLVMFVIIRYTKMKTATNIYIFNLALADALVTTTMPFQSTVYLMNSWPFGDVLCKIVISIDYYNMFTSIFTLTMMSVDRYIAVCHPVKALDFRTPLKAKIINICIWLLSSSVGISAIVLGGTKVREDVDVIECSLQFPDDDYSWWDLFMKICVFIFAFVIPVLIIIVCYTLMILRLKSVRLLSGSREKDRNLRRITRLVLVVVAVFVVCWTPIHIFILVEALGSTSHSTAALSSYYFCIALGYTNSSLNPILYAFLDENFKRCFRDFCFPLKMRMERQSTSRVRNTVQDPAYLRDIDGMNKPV
experimental.protocol: Ratio of affinity towards mu and kappa opioid receptors
Type: protein assay
Residues, ends and D or L forms follow the SMILES beside them. *: point of attachment. X1 = CC1C2Cc3ccc(O)cc3[C@]1(C)CCN2CC1C[C@]1(C(=O)*)c1ccccc1
Returns 1.0 if the recorded Selectivity ratio is greater than or equal to 40, and 0.0 otherwise.

1. CCC(=N)NCCCCNC(=O)C(CC(C)C)NC(=O)CNC(=O)[C@]1(c2ccccc2)CC1CN1CC[C@@]2(C)c3cc(O)ccc3CC1C2C (some centres not stated) : 1.0
2. CCC(=N)NCCCCCCNC(=O)C(CC(C)C)NC(=O)CNC(=O)[C@]1(c2ccccc2)CC1CN1CC[C@@]2(C)c3cc(O)ccc3CC1C2C (some centres not stated) : 1.0
3. CC(C)CC(NC(=O)CNC(=O)[C@]1(c2ccccc2)CC1CN1CC[C@@]2(C)c3cc(O)ccc3CC1C2C)C(=O)NCCCCCN=C(N)N (some centres not stated) : 1.0
4. CCCCC(=N)NCCCNC(=O)C(CC(C)C)NC(=O)[C@]1(c2ccccc2)CC1CN1CC[C@@]2(C)c3cc(O)ccc3CC1C2C (some centres not stated) : 0.0
5. CC(C)CC(NC(=O)CNC(=O)[C@]1(c2ccccc2)CC1CN1CC[C@@]2(C)c3cc(O)ccc3CC1C2C)C(=O)NCCCCCN (some centres not stated) : 1.0
6. CCCCC(=N)NCCCCNC(=O)C(CC(C)C)NC(=O)CNC(=O)[C@]1(c2ccccc2)CC1CN1CC[C@@]2(C)c3cc(O)ccc3CC1C2C (some centres not stated) : 1.0
7. CCCC(=N)NCCCCCCNC(=O)C(CC(C)C)NC(=O)[C@]1(c2ccccc2)CC1CN1CC[C@@]2(C)c3cc(O)ccc3CC1C2C (some centres not stated) : 0.0
8. CC[C@H](C)[C@H](NC(=O)[C@H](CCCN=C(N)N)NC(=O)[C@H](CCCN=C(N)N)NC(=O)CNC(=O)[C@]1(c2ccccc2)CC1CN1CC[C@@]2(C)c3cc(O)ccc3CC1C2C)C(=O)OC (some centres not stated) (X1-GRRI-OMe) : 1.0
9. CC(C)CC(NC(=O)CNC(=O)[C@]1(c2ccccc2)CC1CN1CC[C@@]2(C)c3cc(O)ccc3CC1C2C)C(=O)NCCCCN=C(N)N (some centres not stated) : 1.0
10. CCC(=N)NCCCCCNC(=O)C(CC(C)C)NC(=O)[C@]1(c2ccccc2)CC1CN1CC[C@@]2(C)c3cc(O)ccc3CC1C2C (some centres not stated) : 0.0
11. CCCC(=N)NCCCCCCNC(=O)C(CC(C)C)NC(=O)CNC(=O)[C@]1(c2ccccc2)CC1CN1CC[C@@]2(C)c3cc(O)ccc3CC1C2C (some centres not stated) : 1.0
12. CC(C)CC(NC(=O)[C@]1(c2ccccc2)CC1CN1CC[C@@]2(C)c3cc(O)ccc3CC1C2C)C(=O)NCCCCN (some centres not stated) : 0.0
